What pKa was measured for each of the following?
- ASSAY_CONDITIONS: acidic group
Give bare numbers.

{"MOLECULE": "CCCC(C)C1(CC)C(=O)NC(=O)NC1=O (stereo unspecified)", "VALUE": 8.08}
{"MOLECULE": "Nc1ccc(S(=O)(=O)Nc2nccs2)cc1/N=N/c1ccccc1", "VALUE": 5.85}
{"MOLECULE": "c1ccc2c(c1)[nH]c1c2cc[n+]2cc3c(cc12)CCCC3", "VALUE": 10.6}

Batch: pKa for all items listed.
1. CC(C)c1ccc(C(=O)/C=C/C(=O)O)cc1
2. CC(C)CCC(=O)O
3. CCCCCCCP(=O)(CCCCCCC)NC1CCCCC1
4. Cc1ccc2c(c1O)-c1c-2ccc(C)c1O
5. O=Cc1ccncc1O
6. Cc1ncc(C(=O)O)s1
7. Oc1ccc[nH+]c1
8. O=C(O)CCC(=O)c1cccc2ccccc12

## Result
[3.4, 4.84, 12.5, 8.04, 6.77, 3.26, 5.01, 4.48]

Batch: pKa for all items listed.
1. COc1cc(OC)nc([N-]S(=O)(=O)c2ccc(O)cc2)n1
2. COP(=O)([O-])NS(=O)(=O)c1ccccc1
3. CN(C)c1ccc(NC=S)cc1
4. Cc1ccc(C(=O)C[S+](C)C)cc1
5. Clc1nnn[nH]1
6. CC1(C)NC(=S)NC1=S
7. COc1ccc2c3c([nH]c2c1)C(C)NCC3 (stereo unspecified)

## Result
1. 9.05
2. 6.25
3. 12
4. 8.9
5. 2.07
6. 7.65
7. 15.6
